test system: SARS-CoV-2 (USA-WA1/2020) in Calu-3 cells; type: cell-based; settings: low dose (100 nM), Calu-3, 48 h
Item-by-item account of dsRNA signal, AU Low
State just the number; it will be interpreted in AU.

Query :: Name the reported dsRNA signal, AU Low value associated with the molecule `NC(=O)c1ccc2nc(-c3ccc(Oc4ccc(Cl)cc4)cc3)[nH]c2c1`
Result :: 13488.9

Query :: Moving on to the next molecule: `CCN(CCO)CCCOc1ccc2c(Nc3cc(CC(=O)Nc4cccc(F)c4)[nH]n3)ncnc2c1`
Result :: 41038.0

Query :: Moving on to the next molecule: `COc1cc2nccc(Oc3ccc(NC(=O)Nc4cc(C)on4)c(Cl)c3)c2cc1OC`
Result :: 36133.0

Query :: Moving on to the next molecule: `CNC(=O)c1ccc(C)c(-n2c(C)cc(OCc3ccc(F)cc3F)c(Br)c2=O)c1`
Result :: 57938.0

Query :: Moving on to the next molecule: `CC1=CC(=O)C(C(C)C)=C/C1=N/OC(=O)c1ccccc1C`
Result :: 59035.4

Continuing:
Query :: Name the reported dsRNA signal, AU Low value associated with the molecule `Cc1ncc(-c2ccnc(Nc3ccc(S(C)(=O)=O)cc3)n2)n1C(C)C`
Result :: 32871.5

Query :: Moving on to the next molecule: `Cc1cc2c(F)c(Oc3ncnn4cc(OC[C@@H](C)O)c(C)c34)ccc2[nH]1`
Result :: 684.7

Query :: Moving on to the next molecule: O=C1NC(=O)/C(=C/c2cccc(C(F)(F)F)c2)S1 [TCS-PIM-1-4a]
Result :: 12250.9

Query :: Moving on to the next molecule: `Nc1nc(N)c2nc(-c3cccc(O)c3)c(-c3cccc(O)c3)nc2n1`
Result :: 17405.4

Query :: Moving on to the next molecule: `CCn1c(=O)c(-c2ccc(-c3cncs3)cc2Cl)cc2cnc(Nc3ccc(N4CCN(C)CC4)cc3)nc21`
Result :: 50796.9

Query :: Moving on to the next molecule: `CC(C)n1nc(-c2ccc3oc(N)nc3c2)c2c(N)ncnc21`
Result :: 31875.7

Query :: Moving on to the next molecule: `Cn1cc(C2=C(c3ccc(Cl)cc3Cl)C(=O)NC2=O)c2ccccc21`
Result :: 53506.5

Query :: Moving on to the next molecule: `CC(C)(C)Cn1c(N)nc2ccc(-c3[nH]c(C(C)(C)C)nc3-c3ccc(F)cc3)nc21`
Result :: 5927.3

Query :: Moving on to the next molecule: `Cc1c(NC(=O)OC[C@@H]2COCCN2)cn2ncnc(Nc3ccc4c(cnn4Cc4cccc(F)c4)c3)c12`
Result :: 62401.2

Query :: Moving on to the next molecule: `O=[N+]([O-])/C=C/c1ccc2c(c1)OCO2`
Result :: 51870.8

Query :: Moving on to the next molecule: COCCOc1cnc2ccn([C@H](C)c3nnc4c(F)cc(-c5cnn(C)c5)cn34)c(=O)c2c1 [AMG 337, reference compound]
Result :: 33845.4

Query :: Moving on to the next molecule: COc1cc(Nc2ncc(F)c(Nc3ccc4c(n3)NC(=O)C(C)(C)O4)n2)cc(OC)c1OC [R406, reference compound]
Result :: 30563.4

Query :: Moving on to the next molecule: Fc1cc(-c2cccc3ncc(-c4cnn(C5CCNCC5)c4)nc23)cc(F)c1CN1CCOCC1 [NVP-BSK805 2HCl]
Result :: 2038.5

Query :: Moving on to the next molecule: `CN1CCN(c2ccc3nc(-c4c(N)c5c(F)cccc5[nH]c4=O)[nH]c3c2)CC1`
Result :: 183.2

Query :: Moving on to the next molecule: CCN(CC)CCCC(C)Nc1ccnc2cc(Cl)ccc12 (centres unmarked) [Chloroquine diphosphate]
Result :: 1072.6

Query :: Moving on to the next molecule: `CC(C)(O)/C=C/C(=O)[C@](C)(O)[C@H]1[C@H](O)C[C@@]2(C)[C@@H]3CC=C4[C@@H](C=C(O)C(=O)C4(C)C)[C@]3(C)C(=O)C[C@]12C`
Result :: 39750.1

Query :: Moving on to the next molecule: Cl.Cl.c1cc(-c2cnn3cc(-c4ccc(OCCN5CCCCC5)cc4)cnc23)ccn1 [Dorsomorphin 2HCl]
Result :: 18817.3

Query :: Moving on to the next molecule: `CCOC(=O)c1ccc(N2NC(=O)/C(=C/c3ccc([N+](=O)[O-])o3)C2=O)cc1`
Result :: 6659.6

Query :: Moving on to the next molecule: `COc1cc2ncnc(-n3nc(-c4ccccn4)nc3N)c2cc1OC`
Result :: 24439.1

Query :: Moving on to the next molecule: COc1cc(Nc2ncc(F)c(Nc3ccc4c(n3)NC(=O)C(C)(C)O4)n2)cc(OC)c1OC [R406 (free base)]
Result :: 55638.2

Query :: Moving on to the next molecule: `O=C(Nc1cc(C(F)(F)F)cc(C(F)(F)F)c1)c1cc(Cl)ccc1O`
Result :: 20862.1

###

Item-by-item account of dsRNA signal, AU Low
test system: SARS-CoV-2 (USA-WA1/2020) in Calu-3 cells; format: cell-based; conditions: low dose (100 nM), Calu-3, 48 h
State just the number; it will be interpreted in AU.

Here's what some known entries look like.
Query :: Name the reported dsRNA signal, AU Low value associated with the compound CN1CCN(c2nc(C3=C(c4c[nH]c5ccccc45)C(=O)NC3=O)c3ccccc3n2)CC1 [Sotrastaurin (AEB071)]
Result :: 40818.2

Query :: Moving on to the next compound: CCS(=O)(=O)N1CCN(c2ccc(Nc3ncc(C(N)=O)c(NC4CC4)n3)cc2)CC1 [Cerdulatinib (PRT062070)]
Result :: 21245.1

Query :: Moving on to the next compound: Cc1ccc(F)c(NC(=O)Nc2ccc(-c3cccc4[nH]nc(N)c34)cc2)c1 [Linifanib]
Result :: 21480.2

Query :: Moving on to the next compound: O=[N+]([O-])c1ccc(Sc2cccc[n+]2[O-])c2nonc12 [NSC228155]
Result :: 54998.4

Query :: Moving on to the next compound: COc1cc2nccc(Oc3ccc(NC(=O)Nc4ccc(F)cc4F)c(F)c3)c2cc1OC [Ki8751]
Result :: 45822.4

Continuing:
Query :: Name the reported dsRNA signal, AU Low value associated with the compound BrC1C(Br)C(Br)C(Br)C(Br)C1Br (centres unmarked) [1,2,3,4,5,6-Hexabromocyclohexane]
Result :: 23091.7

Query :: Moving on to the next compound: CCN1CCN(Cc2ccc(NC(=O)Nc3ccc(Oc4cc(NC)ncn4)cc3)cc2C(F)(F)F)CC1 [AST 487]
Result :: 5709.8

Query :: Moving on to the next compound: CC(C)(C)c1ccc(S(=O)(=O)/C=C/C#N)cc1 [Bay 11-7085]
Result :: 21705.2

###

tested on: SARS-CoV-2 (USA-WA1/2020) in Calu-3 cells; assay: microbe, parasite or virus in culture; format: cell-based; details: Severe acute respiratory syndrome coronavirus 2, Calu-3, 48 h; […]; above 30 μM reported as >30; read-out: EC50 (μM) dsRNA
endpoint: EC50 (µM)
State just the number; it will be interpreted in µM.

Query :: Name the reported EC50 value associated with the compound Cc1ccc(F)c(NC(=O)Nc2ccc(-c3cccc4[nH]nc(N)c34)cc2)c1 [Linifanib]
Result :: 20.5

Query :: Moving on to the next compound: C[C@@H](NC(=O)c1ncnc(N)c1Cl)c1ncc(C(=O)Nc2cc(C(F)(F)F)c(Cl)cn2)s1 [MLN 2480]
Result :: 0.0998

Query :: Moving on to the next compound: CNC(=O)c1cc(Oc2ccc(NC(=O)Nc3ccc(Cl)c(C(F)(F)F)c3)c(F)c2)ccn1 [Regorafenib monohydrate]
Result :: 6.46

Now examine the next entry.
Query :: Name the reported EC50 value associated with the compound C=CC(=O)N1CCC[C@@H](n2nc(-c3ccc(Oc4ccccc4)cc3)c3c(N)ncnc32)C1 [Ibrutinib]
Result :: 13.7

###

test system: SARS-CoV-2 (USA-WA1/2020) in Calu-3 cells; type: cell-based; settings: low dose (100 nM), Calu-3, 48 h
Label 1 (yes) when dsRNA signal, AU Low is strictly below 20000 AU; otherwise label 0 (no).

Query :: Input COc1ccc(S(=O)(=O)Nc2ccccc2CN(C)C/C=C/c2ccc(Cl)cc2)cc1.Cl [KN-92 hydrochloride] ; condition: dsRNA signal, AU Low strictly below 20000 AU. Does it hold?
Result :: 1 (yes)

Continuing:
Query :: Input COc1cc(N2CCC(O)CC2)ccc1Nc1cc(Nc2ccccc2S(=O)(=O)C(C)C)c2cc[nH]c2n1 [Mps1-IN-1] ; condition: dsRNA signal, AU Low strictly below 20000 AU. Does it hold?
Result :: 0 (no)

Query :: Moving on to the next compound: Cc1ccc(Nc2nccc(N(C)c3ccc4c(C)n(C)nc4c3)n2)cc1S(N)(=O)=O.Cl [Pazopanib HCl]
Result :: 1 (yes)

Query :: Moving on to the next compound: C#Cc1cccc(Nc2ncnc3cc(OCCOC)c(OCCOC)cc23)c1 [Erlotinib]
Result :: 1 (yes)

Query :: Moving on to the next compound: C[C@@H]1COCCN1c1cc(=O)n2c(n1)N(Cc1cncc(Cl)c1)[C@H](C(F)(F)F)CC2 [SAR405]
Result :: 0 (no)

Query :: Moving on to the next compound: CNC(=O)c1ccccc1Sc1ccc2c(/C=C/c3ccccn3)n[nH]c2c1 [Axitinib (AG 013736)]
Result :: 0 (no)

Query :: Moving on to the next compound: OC[C@H]1O[C@@H](OCCc2ccc(O)cc2)[C@H](O)[C@@H](O)[C@@H]1O [Salidroside]
Result :: 0 (no)

Query :: Moving on to the next compound: CN1C/C=C/CCOc2cccc(c2)-c2ccnc(n2)Nc2cccc(c2)C1 [SB1317]
Result :: 0 (no)

Query :: Moving on to the next compound: CNC(=O)c1cc(Oc2ccc(NC(=O)c3cccc(C(F)(F)F)c3)cc2)ccn1 [SKLB610]
Result :: 1 (yes)

Query :: Moving on to the next compound: Nc1nc(N)c(N=O)c(OCC2CCCCC2)n1 [Nu 6027]
Result :: 1 (yes)

Query :: Moving on to the next compound: COc1cc(-c2cc(-c3cccc(O)c3)cnc2N)cc(OC)c1OC [K02288]
Result :: 1 (yes)

Query :: Moving on to the next compound: O=c1cc(N2CCOCC2)oc2c(-c3ccccc3)cccc12 [LY 294002]
Result :: 0 (no)
